Each recorded value in this set is attributed to ChEMBL document CHEMBL5331122.

System: Enterococcus faecalis
Experiment: Antibacterial activity against Enterococcus faecalis ATCC 29212 assessed as bacterial growth inhibition incubated for 18 hrs by broth microdilution method
Assay type: functional
Where a SMILES comes first, the peptide text is derived from it. Bridges are numbered along the chain shown (N, C = ends). [ ]: non-standard residue; d: D form. The star is where a group is joined. Heptanoyl(6-Me) = CC(C)CCCCC(=O)*; Dab = NCC[C@H](N)C(=O)O; Hexanoyl = CCCCCC(=O)*
Checkbox rule: MIC lower than 20 µg/mL = Satisfied; MIC not lower than 20 µg/mL = Not satisfied.

Field: example entries. Status: answers known.
CO[C@H]1/C=C/O[C@@]2(C)Oc3c(C)c(O)c4c(O)c(c(/C=N/N5CCN(C)CC5)c(O)c4c3C2=O)NC(=O)/C(C)=C\C=C\[C@H](C)[C@H](O)[C@@H](C)[C@@H](O)[C@@H](C)[C@H](OC(C)=O)[C@@H]1C; Satisfied
CC[C@H](C)[C@H](NC(=O)[C@H](CCN)NC(=O)CC(O)C(C)C)C(=O)N[C@@H](CCN)C(=O)N[C@H](Cc1ccccc1)C(=O)N[C@@H](CC(C)C)C(=O)N[C@@H](CCN)C(=O)N[C@@H](C(=O)N[C@@H](CC(C)C)C(=O)N[C@H](C(N)=O)[C@@H](C)O)C(C)C (some centres undefined); Not satisfied
CCCCCCCCCCCCC(=O)N[C@@H](CCN)C(=O)N[C@H](C(=O)N[C@@H](CCN)C(=O)N[C@H](Cc1ccccc1)C(=O)N[C@@H](CC(C)C)C(=O)N[C@@H](CCN)C(=O)N[C@@H](C(=O)N[C@@H](CC(C)C)C(=O)N[C@H](C(N)=O)[C@@H](C)O)C(C)C)[C@@H](C)CC; Satisfied
CCCCCCCC(=O)N[C@@H](CCN)C(=O)N[C@H](C(=O)N[C@@H](CCN)C(=O)N[C@H](Cc1ccccc1)C(=O)N[C@@H](CC(C)C)C(=O)N[C@@H](CCN)C(=O)N[C@@H](C(=O)N[C@@H](CC(C)C)C(=O)N[C@H](C(N)=O)[C@@H](C)O)C(C)C)[C@@H](C)CC; Satisfied
CCCCCC(=O)N[C@@H](CCN)C(=O)N[C@H](C(=O)N[C@@H](CCN)C(=O)N[C@H](Cc1ccccc1)C(=O)N[C@@H](CC(C)C)C(=O)N[C@H]1CCNC(=O)[C@H]([C@@H](C)O)NC(=O)[C@H](CC(C)C)NC(=O)[C@@H](C(C)C)NC1=O)[C@@H](C)CC; Not satisfied

Say whether its MIC is strictly beneath 20 µg/mL. Entry: CCCCCC(=O)N[C@@H](CCN)C(=O)N[C@H](C(=O)N[C@H]1CCNC(=O)[C@H]([C@@H](C)O)NC(=O)[C@H](CC(C)C)NC(=O)[C@@H](C(C)C)NC(=O)[C@H](CCN)NC(=O)[C@H](CC(C)C)NC(=O)[C@@H](Cc2ccccc2)NC1=O)[C@@H](C)CC
Not satisfied

Say whether its MIC is strictly beneath 20 µg/mL. Entry: CCCCCCC(=O)N[C@@H](CCN)C(=O)N[C@H](C(=O)N[C@@H](CCN)C(=O)N[C@H](Cc1ccccc1)C(=O)N[C@@H](CC(C)C)C(=O)N[C@@H](CCN)C(=O)N[C@@H](C(=O)N[C@@H](CC(C)C)C(=O)N[C@@H](Cc1ccc(O)cc1)C(N)=O)C(C)C)[C@@H](C)CC
Not satisfied

Say whether its MIC is strictly beneath 20 µg/mL. Entry: CCCCCC(=O)N[C@@H](CCN)C(=O)N[C@H](C(=O)N[C@@H](CCN)C(=O)N[C@H](Cc1ccccc1)C(=O)N[C@@H](CC(C)C)C(=O)N[C@@H](CCN)C(=O)N[C@@H](C(=O)N[C@@H](CC(C)C)C(=O)N[C@@H](CO)C(N)=O)C(C)C)[C@@H](C)CC (Hexanoyl-[Dab]I[Dab][dF]L[Dab][dV]LS-NH2)
Not satisfied

Say whether its MIC is strictly beneath 20 µg/mL. Entry: CCCCCCCCCC(=O)N[C@@H](CCN)C(=O)N[C@H](C(=O)N[C@@H](CCN)C(=O)N[C@H](Cc1ccccc1)C(=O)N[C@@H](CC(C)C)C(=O)N[C@@H](CCN)C(=O)N[C@@H](C(=O)N[C@@H](CC(C)C)C(=O)N[C@H](C(N)=O)[C@@H](C)O)C(C)C)[C@@H](C)CC
Satisfied

Say whether its MIC is strictly beneath 20 µg/mL. Entry: NC[C@H]1O[C@H](O[C@H]2[C@H](O)[C@@H](O[C@H]3O[C@H](CO)[C@@H](O)[C@H](N)[C@H]3O)[C@H](N)C[C@@H]2N)[C@H](O)[C@@H](O)[C@@H]1O
Satisfied

Say whether its MIC is strictly beneath 20 µg/mL. Entry: CC(C)CCCCC(=O)N[C@@H](CCN)C(=O)N[C@H](C(=O)N[C@@H](CCN)C(=O)N[C@H]1CCNC(=O)[C@H]([C@@H](C)O)NC(=O)[C@H](CCN)NC(=O)[C@H](CCN)NC(=O)[C@H](CC(C)C)NC(=O)[C@@H](Cc2ccccc2)NC(=O)[C@H](CCN)NC1=O)[C@@H](C)O ({Heptanoyl(6-Me)}-[Dab]T[Dab][Dab][Dab][dF]L[Dab][Dab]T; lactam 4-C)
Not satisfied

Say whether its MIC is strictly beneath 20 µg/mL. Entry: CCCCCCCCCCCC(=O)N[C@@H](CCN)C(=O)N[C@H](C(=O)N[C@@H](CCN)C(=O)N[C@H](Cc1ccccc1)C(=O)N[C@@H](CC(C)C)C(=O)N[C@@H](CCN)C(=O)N[C@@H](C(=O)N[C@@H](CC(C)C)C(=O)N[C@H](C(N)=O)[C@@H](C)O)C(C)C)[C@@H](C)CC
Satisfied

Say whether its MIC is strictly beneath 20 µg/mL. Entry: CCCCCC(=O)N[C@@H](CCN)C(=O)N[C@H](C(=O)N[C@@H](CCN)C(=O)N[C@H](Cc1ccccc1)C(=O)N[C@@H](CC(C)C)C(=O)N[C@@H](CCN)C(=O)N[C@@H](C(=O)N[C@@H](CC(C)C)C(=O)N[C@@H](Cc1ccc(O)cc1)C(N)=O)C(C)C)[C@@H](C)CC
Not satisfied

Say whether its MIC is strictly beneath 20 µg/mL. Entry: CCCCCCCCCCCCCC(=O)N[C@@H](CCN)C(=O)N[C@H](C(=O)N[C@@H](CCN)C(=O)N[C@H](Cc1ccccc1)C(=O)N[C@@H](CC(C)C)C(=O)N[C@@H](CCN)C(=O)N[C@@H](C(=O)N[C@@H](CC(C)C)C(=O)N[C@H](C(N)=O)[C@@H](C)O)C(C)C)[C@@H](C)CC
Satisfied

---

Test system: Staphylococcus aureus
Assay: Antibacterial activity against Staphylococcus aureus ATCC 25923 assessed as bacterial growth inhibition incubated for 18 hrs by broth microdilution method
Format: functional
METRIC: MIC
Respond with a number, then the unit of measure.

Here are 5 compounds together with their reported answers.
CCCCCCCC(=O)N[C@@H](CCN)C(=O)N[C@H](C(=O)N[C@@H](CCN)C(=O)N[C@H](Cc1ccccc1)C(=O)N[C@@H](CC(C)C)C(=O)N[C@@H](CCN)C(=O)N[C@@H](C(=O)N[C@@H](CC(C)C)C(=O)N[C@H](C(N)=O)[C@@H](C)O)C(C)C)[C@@H](C)CC; 8 µg/mL
CCCCCC(=O)N[C@@H](CCN)C(=O)N[C@H](C(=O)N[C@@H](CCN)C(=O)N[C@H](Cc1ccccc1)C(=O)N[C@@H](CC(C)C)C(=O)N[C@@H](CCN)C(=O)N[C@@H](C(=O)N[C@@H](CC(C)C)C(=O)N[C@@H](Cc1c[nH]c2ccccc12)C(N)=O)C(C)C)[C@@H](C)CC; 8 µg/mL
CCCCCC(=O)N[C@@H](CCN)C(=O)N[C@H](C(=O)N[C@@H](CCN)C(=O)N[C@H](Cc1ccccc1)C(=O)N[C@@H](CC(C)C)C(=O)N[C@H]1CCNC(=O)[C@H]([C@@H](C)O)NC(=O)[C@H](CC(C)C)NC(=O)[C@@H](C(C)C)NC1=O)[C@@H](C)CC; 32 µg/mL
CCCCCC(=O)N[C@@H](CCN)C(=O)N[C@H](C(=O)N[C@@H](CCN)C(=O)N[C@H](Cc1ccccc1)C(=O)N[C@@H](CC(C)C)C(=O)N[C@@H](CCN)C(=O)N[C@@H](C(=O)N[C@@H](CC(C)C)C(=O)N[C@H](C(N)=O)[C@@H](C)CC)C(C)C)[C@@H](C)CC; 32 µg/mL
CCCCCC(=O)N[C@@H](CCN)C(=O)N[C@H](C(=O)N[C@@H](CCN)C(=O)N[C@H](Cc1ccccc1)C(=O)N[C@@H](CC(C)C)C(=O)N[C@@H](CCN)C(=O)N[C@@H](C(=O)N[C@@H](CC(C)C)C(=O)N[C@@H](CCCCN)C(N)=O)C(C)C)[C@@H](C)CC; 64 µg/mL

Missing value: MIC, Staphylococcus aureus, entry CCCCCCCCCCCCCC(=O)N[C@@H](CCN)C(=O)N[C@H](C(=O)N[C@@H](CCN)C(=O)N[C@H](Cc1ccccc1)C(=O)N[C@@H](CC(C)C)C(=O)N[C@@H](CCN)C(=O)N[C@@H](C(=O)N[C@@H](CC(C)C)C(=O)N[C@H](C(N)=O)[C@@H](C)O)C(C)C)[C@@H](C)CC . Fill in?
32 µg/mL

Missing value: MIC, Staphylococcus aureus, entry CCCCCCCCCCCC(=O)N[C@@H](CCN)C(=O)N[C@H](C(=O)N[C@@H](CCN)C(=O)N[C@H](Cc1ccccc1)C(=O)N[C@@H](CC(C)C)C(=O)N[C@@H](CCN)C(=O)N[C@@H](C(=O)N[C@@H](CC(C)C)C(=O)N[C@H](C(N)=O)[C@@H](C)O)C(C)C)[C@@H](C)CC . Fill in?
16 µg/mL
